src = ChEMBL document CHEMBL3774361

experiment.summary: Selectivity index, ratio of GI50 for human THP1 cells to MIC90 for active stage of Mycobacterium bovis BCG ATCC 35743
Format: toxicity, cell-based, THP-1
experimental.conditions: read-out: Selectivity Index
Our labelling divides records by selectivity ratio into ranges: L: < 20; M: ≥ 20 and < 50; H: ≥ 50

{"columns": ["compound", "qualitative.label"],
 "data": [
  ["C=CCCCCCCCc1cc2c(=O)n(CCBr)cnc2s1", "M"],
  ["CCCCCCCCCCc1cc2c(=O)n(CCO)cnc2s1", "L"],
  ["CCCCCCCc1cc2c(=O)n(CC#N)cnc2s1", "H"],
  ["CCCCCCCc1cc2c(=O)n(CC3CC3)cnc2s1", "H"],
  ["CCCCCCc1cc2c(=O)n(CC3CC3)cnc2s1", "H"],
  ["CCCCCCCc1cc2c(=O)n(CCN=[N+]=[N-])cnc2s1", "H"],
  ["CCCCCCCCCCc1cc2c(=O)n(CCBr)cnc2s1", "M"],
  ["CCCCCc1cc2c(=O)n(CCC)cnc2s1", "L"],
  ["CCCCCCCc1cc2c(=O)n(CCCBr)cnc2s1", "L"],
  ["CCCCCCc1cc2c(=O)n(CCN=[N+]=[N-])cnc2s1", "M"],
  ["CCCCCn1cnc2sc(CC)cc2c1=O", "L"],
  ["CO[C@H]1/C=C/O[C@@]2(C)Oc3c(C)c(O)c4c(O)c(c(/C=N/N5CCN(C)CC5)c(O)c4c3C2=O)NC(=O)/C(C)=C\\C=C\\[C@H](C)[C@H](O)[C@@H](C)[C@@H](O)[C@@H](C)[C@H](OC(C)=O)[C@@H]1C [RIFAMPIN]", "H"]
]}

====

experiment.summary: Selectivity index, ratio of GI50 for human MCF7 cells to MIC90 for active stage of Mycobacterium bovis BCG ATCC 35743
Format: toxicity, cell-based
experimental.conditions: read-out: Selectivity Index

{"columns": ["entry.smiles", "censoring.qualifier", "selectivity ratio"],
 "data": [
  ["CCCCCCCCCCc1cc2c(=O)n(CCBr)cnc2s1", "=", 9],
  ["CCCCCCCCCCc1cc2c(=O)n(CCO)cnc2s1", ">", 5],
  ["CCCCCc1cc2c(=O)n(CCC)cnc2s1", "=", 4],
  ["CCCCCCc1cc2c(=O)n(CC3CC3)cnc2s1", "=", 18],
  ["CCCCCn1cnc2sc(CC)cc2c1=O", ">", 10],
  ["CCCCCCCc1cc2c(=O)n(CC#N)cnc2s1", ">", 53],
  ["CCCCCCCc1cc2c(=O)n(CCCBr)cnc2s1", "=", 3]
]}

====

experiment.summary: Selectivity index, ratio of GI50 for human THP1 cells to MIC90 for active stage of Mycobacterium tuberculosis H37Ra
Assay type: toxicity, cell-based, THP-1
experimental.conditions: read-out: Selectivity Index
Reported selectivity ratio values follow for various molecules
property.label: selectivity ratio

{"columns": ["entry.smiles", "property.label", "meas.value"],
 "data": [
  ["CCCCCCCc1cc2c(=O)n(CC#N)cnc2s1", "selectivity ratio", 40],
  ["CCCCCc1cc2c(=O)n(CCC)cnc2s1", "selectivity ratio", 2],
  ["CCCCCCCc1cc2c(=O)n(CC3CC3)cnc2s1", "selectivity ratio", 2],
  ["C=CCCCCCCCc1cc2c(=O)n(CCBr)cnc2s1", "selectivity ratio", 29],
  ["CCCCCCc1cc2c(=O)n(CC3CC3)cnc2s1", "selectivity ratio", 2],
  ["CCCCCc1cc2c(=O)n(CC3CC3)cnc2s1", "selectivity ratio", 3],
  ["CCCCCCCc1cc2c(=O)n(CCN=[N+]=[N-])cnc2s1", "selectivity ratio", 48],
  ["CCCCCCCc1cc2c(=O)n(CCCBr)cnc2s1", "selectivity ratio", 6],
  ["CCCCCn1cnc2sc(CC)cc2c1=O", "selectivity ratio", 2]
]}

====

experiment.summary: Selectivity index, ratio of GI50 for human THP1 cells to MIC90 for active stage of Mycobacterium tuberculosis H37Ra
Type: toxicity, cell-based, THP-1
experimental.conditions: read-out: Selectivity Index
Overview of recorded selectivity ratio for various compounds

{"columns": ["compound", "selectivity ratio"],
 "data": [
  ["CCCCCCc1cc2c(=O)n(CCN=[N+]=[N-])cnc2s1", 12],
  ["CCCCCCCCCCc1cc2c(=O)n(CCO)cnc2s1", 15],
  ["CO[C@H]1/C=C/O[C@@]2(C)Oc3c(C)c(O)c4c(O)c(c(/C=N/N5CCN(C)CC5)c(O)c4c3C2=O)NC(=O)/C(C)=C\\C=C\\[C@H](C)[C@H](O)[C@@H](C)[C@@H](O)[C@@H](C)[C@H](OC(C)=O)[C@@H]1C [RIFAMPIN]", 196],
  ["CCCCCCCCCCc1cc2c(=O)n(CCBr)cnc2s1", 4]
]}

====

experiment.summary: Selectivity index, ratio of GI50 for human MCF7 cells to MIC90 for active stage of Mycobacterium tuberculosis H37Ra
Type: toxicity, cell-based
experimental.conditions: read-out: Selectivity Index
selectivity ratio values for the molecules below.
property.label: selectivity ratio

{"columns": ["entry.smiles", "property.label", "meas.value"],
 "data": [
  ["CCCCCc1cc2c(=O)n(CC3CC3)cnc2s1", "selectivity ratio", 3],
  ["CCCCCCCCCCc1cc2c(=O)n(CCBr)cnc2s1", "selectivity ratio", 1],
  ["C=CCCCCCCCc1cc2c(=O)n(CCBr)cnc2s1", "selectivity ratio", 7]
]}

====

Test system: Mycobacterium tuberculosis
experiment.summary: Antitubercular activity against dormant stage of Mycobacterium tuberculosis H37Ra assessed as cell viability after 12 days by XTT reduction menadione assay
Type: functional
experimental.conditions: 288 h
Please note: MIC90 exactly at 40 µg/mL is Criterion not met. Only values below 40 µg/mL get Criterion met.

{"columns": ["entry.smiles", "qualitative.label"],
 "data": [
  ["CCCCCc1cc2c(=O)n(CC3CC3)cnc2s1", "Criterion not met"],
  ["CCCCCc1cc2c(=O)n(CCC)cnc2s1", "Criterion met"],
  ["CCCCCn1cnc2sc(CC)cc2c1=O", "Criterion not met"],
  ["CCCCCCCc1cc2c(=O)n(CCCBr)cnc2s1", "Criterion met"],
  ["CCCCCCCc1cc2c(=O)n(CC3CC3)cnc2s1", "Criterion not met"],
  ["CCCCCCCc1cc2c(=O)n(CCN=[N+]=[N-])cnc2s1", "Criterion met"],
  ["CO[C@H]1/C=C/O[C@@]2(C)Oc3c(C)c(O)c4c(O)c(c(/C=N/N5CCN(C)CC5)c(O)c4c3C2=O)NC(=O)/C(C)=C\\C=C\\[C@H](C)[C@H](O)[C@@H](C)[C@@H](O)[C@@H](C)[C@H](OC(C)=O)[C@@H]1C", "Criterion met"],
  ["CCCCCCCCCCc1cc2c(=O)n(CCBr)cnc2s1", "Criterion met"],
  ["CCCCCCCc1cc2c(=O)n(CC#N)cnc2s1", "Criterion met"],
  ["CCCCCCCCCCc1cc2c(=O)n(CCO)cnc2s1", "Criterion met"],
  ["CCCCCCc1cc2c(=O)n(CC3CC3)cnc2s1", "Criterion not met"],
  ["CCCCCCc1cc2c(=O)n(CCN=[N+]=[N-])cnc2s1", "Criterion met"],
  ["C=CCCCCCCCc1cc2c(=O)n(CCBr)cnc2s1", "Criterion met"]
]}

====

experiment.summary: Cytotoxicity against human HCT116 cells incubated for 1 to 11 days by MTT assay
Type: cell-based, HCT-116
Each entry below carries its recorded GI50.
property.label: GI50

{"columns": ["entry.smiles", "meas.value"],
 "data": [
  ["CCCCCCc1cc2c(=O)n(CCN=[N+]=[N-])cnc2s1", "14.7 µg/mL"],
  ["CCCCCCCCCCc1cc2c(=O)n(CCO)cnc2s1", "> 100 µg/mL"],
  ["CCCCCCCc1cc2c(=O)n(CC3CC3)cnc2s1", "> 100 µg/mL"],
  ["CCCCCc1cc2c(=O)n(CC3CC3)cnc2s1", "> 100 µg/mL"],
  ["CCCCCCCc1cc2c(=O)n(CCCBr)cnc2s1", "> 100 µg/mL"],
  ["CCCCCn1cnc2sc(CC)cc2c1=O", "> 100 µg/mL"]
]}

====

experiment.summary: Selectivity index, ratio of GI50 for human A549 cells to MIC90 for active stage of Mycobacterium tuberculosis H37Ra
Format: toxicity, cell-based
experimental.conditions: read-out: Selectivity Index
Measured selectivity ratio, listed per entry for reference.

{"columns": ["entry.smiles", "selectivity ratio"],
 "data": [
  ["CCCCCCc1cc2c(=O)n(CCN=[N+]=[N-])cnc2s1", 2],
  ["CCCCCCCc1cc2c(=O)n(CC3CC3)cnc2s1", 2],
  ["CCCCCCCc1cc2c(=O)n(CC#N)cnc2s1", 40],
  ["CCCCCCCc1cc2c(=O)n(CCN=[N+]=[N-])cnc2s1", 48],
  ["CCCCCn1cnc2sc(CC)cc2c1=O", 2],
  ["CCCCCc1cc2c(=O)n(CCC)cnc2s1", 1],
  ["CCCCCCCc1cc2c(=O)n(CCCBr)cnc2s1", 2],
  ["C=CCCCCCCCc1cc2c(=O)n(CCBr)cnc2s1", 13],
  ["CCCCCCCCCCc1cc2c(=O)n(CCO)cnc2s1", 15]
]}
